Listing of recorded pIC50 by entry.
Molecular target: cIAP2-BIR3 (Homo sapiens (Human), UniProt Q13489)
Sequence (Q13489 238-349): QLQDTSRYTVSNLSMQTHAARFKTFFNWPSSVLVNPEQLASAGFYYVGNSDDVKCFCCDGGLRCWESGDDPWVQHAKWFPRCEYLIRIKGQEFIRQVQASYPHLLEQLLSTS
Assay: BIR binding assay (FRET competition), cIAP2 BIR3
pIC50: −log10 of the molar value.

These recorded examples may help you get a feel for the data.
{"columns": ["compound", "pIC50"],
 "data": [
  ["C[C@@H]1CN(CC(=O)N2CC(C)(C)c3ncc(Cc4cccnc4)cc32)[C@@H](CN2CCO[C@H](COc3cccc(OC[C@@H]4CN(C[C@H]5CN[C@H](C)CN5CC(=O)N5CC(C)(C)c6ncc(Cc7cccnc7)cc65)CCO4)c3)C2)CN1 [Compound 146]", "8.10 to 8.86"],
  ["C[C@@H]1CN(CC(=O)N2CC(C)(C)c3[nH]c(=O)c(Cc4ccc(F)cc4)cc32)[C@@H](CN2CCO[C@H](COCCCCCOC[C@@H]3CN(C[C@H]4CN[C@H](C)CN4CC(=O)N4CC(C)(C)c5[nH]c(=O)c(Cc6ccc(F)cc6)cc54)CCO3)C2)CN1 [Example 82]", "7.50 to 7.80"],
  ["C[C@@H]1CN(CC(=O)N2CC(C)(C)c3ncc(Cc4ccc(F)cc4)cc32)[C@@H](CN2CCN(S(=O)(=O)c3cccc(S(=O)(=O)N4CCN(C[C@H]5CN[C@H](C)CN5CC(=O)N5CC(C)(C)c6ncc(Cc7ccc(F)cc7)cc65)[C@H](C)C4)c3)C[C@H]2C)CN1 [Example 36]", "7.50 to 7.80"]
]}

From here, focus on the item given below.
Lookup: Please provide the recorded pIC50 for C[C@@H]1CN(CC(=O)N2CC(C)(C)c3[nH]c(=O)c(Cc4ccc(F)cc4)cc32)[C@@H](CN2CCC(CN(C)Cc3ccc(CN(C)CC4CCN(C[C@H]5CN[C@H](C)CN5CC(=O)N5CC(C)(C)c6[nH]c(=O)c(Cc7ccc(F)cc7)cc65)CC4)cc3)CC2)CN1 [Example 100] , tested on cIAP2-BIR3 (Homo sapiens (Human), UniProt Q13489).
Found: 7.80 to 8.10

* * *

Listed here are compounds together with their documented IC50.
Target: cIAP1-BIR3 (Homo sapiens (Human))
Sequence (Q13490 253-363): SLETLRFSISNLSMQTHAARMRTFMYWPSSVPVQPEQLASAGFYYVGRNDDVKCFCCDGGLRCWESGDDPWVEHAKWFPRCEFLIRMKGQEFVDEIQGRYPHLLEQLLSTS
Test: BIR binding assay (FRET competition), cIAP1 BIR3

{"columns": ["sample smiles", "IC50"],
 "data": [
  ["C[C@@H]1CN(CC(=O)N2CC(C)(C)c3[nH]c(=O)c(Cc4ccc(F)cc4)cc32)[C@@H](CN2CCN(C(=O)CCCCCCCCC(=O)N3CCN(C[C@H]4CN[C@H](C)CN4CC(=O)N4CC(C)(C)c5[nH]c(=O)c(Cc6ccc(F)cc6)cc54)[C@H](C)C3)C[C@H]2C)CN1", "7.94 to 15.8 nM"],
  ["C[C@@H]1CN(CC(=O)N2CC(C)(C)c3[nH]c(=O)c(Cc4ccc(F)cc4)cc32)[C@@H](CN2CCO[C@H](C(=O)NCCOCCOCCOCCNC(=O)[C@@H]3CN(C[C@H]4CN[C@H](C)CN4CC(=O)N4CC(C)(C)c5[nH]c(=O)c(Cc6ccc(F)cc6)cc54)CCO3)C2)CN1", "7.94 to 15.8 nM"],
  ["C[C@@H]1CN(CC(=O)N2CC(C)(C)c3ncc(Cc4cccnc4)cc32)[C@@H](CN2CCO[C@H](COc3cccc(OC[C@@H]4CN(C[C@H]5CN[C@H](C)CN5CC(=O)N5CC(C)(C)c6ncc(Cc7cccnc7)cc65)CCO4)c3)C2)CN1", "1.38 to 7.94 nM"],
  ["C[C@@H]1CN(CC(=O)N2CC(C)(C)c3[nH]c(=O)c(Cc4ccc(F)cc4)cc32)[C@@H](CN2CCO[C@H](COc3ccc(C(=O)C(=O)c4ccc(OC[C@@H]5CN(C[C@H]6CN[C@H](C)CN6CC(=O)N6CC(C)(C)c7[nH]c(=O)c(Cc8ccc(F)cc8)cc76)CCO5)cc4)cc3)C2)CN1", "15.8 to 31.6 nM"],
  ["C[C@@H]1CN(CC(=O)N2CC(C)(C)c3[nH]c(=O)c(Cc4ccc(F)cc4)cc32)[C@@H](CN2CCO[C@H](COc3ccc(OC[C@@H]4CN(C[C@H]5CN[C@H](C)CN5CC(=O)N5CC(C)(C)c6[nH]c(=O)c(Cc7ccc(F)cc7)cc65)CCO4)cc3)C2)CN1", "15.8 to 31.6 nM"]
]}

Lookup: Look up IC50: C[C@@H]1CN(CC(=O)N2CC(C)(C)c3[nH]c(=O)c(Cc4ccc(F)cc4)cc32)[C@@H](CN2CCO[C@H](COc3cc(C#N)cc(OC[C@@H]4CN(C[C@H]5CN[C@H](C)CN5CC(=O)N5CC(C)(C)c6[nH]c(=O)c(Cc7ccc(F)cc7)cc65)CCO4)c3)C2)CN1
Found: 7.94 to 15.8 nM

Lookup: What value of IC50 has been reported for the following compound? Cc1ccc(Cc2cnc3c(c2)N(C(=O)CN2C[C@@H](C)NC[C@@H]2CN2CCO[C@H](COc4cccc(OC[C@@H]5CN(C[C@H]6CN[C@H](C)CN6CC(=O)N6CC(C)(C)c7ncc(Cc8ccc(C)cc8)cc76)CCO5)c4)C2)CC3(C)C)cc1
Found: 15.8 to 31.6 nM
